Hey, just so you know, these numbers are from ChEMBL document CHEMBL1201862.

- Tested on: RPMI-8226
- PROCEDURE_TEXT: NCI tumour cell line growth inhibition, 48 h
Activity calls are given as the source filed them. No stated cut-off is given here; in the data, active = GI50 up to about 1.1 µM and inactive = higher.
Tick one outcome: 1 = active, 0 = inactive

Some solved cases for reference:
{"COMPOUND": "CS(=O)(=O)N1CC(CCl)c2ccc([N+](=O)[O-])cc21 (stereo unspecified)", "CAT": 0}
{"COMPOUND": "CC(=O)Oc1ccc2cc(-c3ccc(OC(C)=O)c(OC(C)=O)c3)c(=O)oc2c1", "CAT": 0}
{"COMPOUND": "O=C(Nc1c(O)[nH]c(=S)[nH]c1=O)c1ccc2ccccc2n1", "CAT": 0}
{"COMPOUND": "Cc1ccc(NP(=O)(Oc2ccccc2)N(CCCl)CCCl)cc1 (stereo unspecified)", "CAT": 0}

Fill in: this test's call for Nc1ncc(Cl)c(NCC2(CO)CC(CCc3ccccc3)C2)n1 (stereo unspecified) is ___ 0

Fill in: this test's call for O=C(CCCCCCCCCCc1ccccc1)C1=C(O)CC(O)CC1=O (stereo unspecified) is ___ 0

Fill in: this test's call for CC(C)N1CCC2(CC1)NNc1ncccc1-n1cccc12 is ___ 0

Fill in: this test's call for CC(C)=CCN1CC(C)C(=O)Nc2cc(Cl)ccc21 (stereo unspecified) is ___ 0

Fill in: this test's call for CC(C)(C)C(=O)C(C(=O)C(C)(C)C)C(=O)C(C)(C)C is ___ 0

Fill in: this test's call for COC(=O)[C@@]12C(=O)C(C)C(=O)[C@]1(C)C(C)=C[C@H]1[C@]3(C=O)CC[C@H](OC(C)=O)C(C)(C)[C@H]3CC[C@@]12C (stereo partly specified) is ___ 0

Fill in: this test's call for CN1N=C2c3ccccc3CC[C@H]2C1c1cccc(O)c1 (stereo partly specified) is ___ 0

* * *

- Tested on: SK-MEL-5
- PROCEDURE_TEXT: NCI tumour cell line growth inhibition, 48 h
Active and inactive are the calls of the source. Cut-off read from the data, not from the text of the source: active = GI50 up to about 1.1 µM and inactive = higher.
QUANTITY_KIND: GI50

Example results:
{"COMPOUND": "CCCc1cn2c(/C=N/NC(=N)N)c(-c3ccc([N+](=O)[O-])cc3)nc2s1", "GI50": "5.81 µM (inactive)"}
{"COMPOUND": "CC(=O)NC1=C(C)C(=O)c2c(nc3n2CCC3O)C1=N (stereo not given)", "GI50": "13 µM (inactive)"}
{"COMPOUND": "CCOC(=O)C[C@@H](C)[C@]1(C(=O)OC)CCCC1=O", "GI50": "> 100 µM (inactive)"}
{"COMPOUND": "O=C(O)CCSCc1ccc(I)cc1", "GI50": "> 100 µM (inactive)"}

Quick one: GI50 of CCOC(=O)C(CCN1CCC2(CC1)C(=O)N(C)CN2c1ccccc1)C(=O)OCC ? > 100 µM (inactive)

* * *

- Test system: KM12
- PROCEDURE_TEXT: NCI tumour cell line growth inhibition, 48 h
Activity calls are given as the source filed them. Rule as the data show it: active = GI50 up to about 1.1 µM and inactive = higher.
Tick one outcome: active, inactive

{"COMPOUND": "COc1cc(C2c3cc4c(cc3OC(NNC(N)=O)C2C)OCO4)cc(OC)c1O (stereo unspecified)", "CAT": "active"}
{"COMPOUND": "CNC(=O)c1cc2nc3ccccc3c(=O)n2c2ccccc12", "CAT": "inactive"}
{"COMPOUND": "N#[N+]c1ccccc1Sc1ccc(Cl)cc1", "CAT": "inactive"}
{"COMPOUND": "Fc1c(F)c(C(F)(F)F)c(F)c(F)c1N/N=C/c1cn(Cc2ccccc2)c2ccccc12", "CAT": "inactive"}
{"COMPOUND": "Clc1ccc(-c2cn3c(nc4ccccc43)c(/C=C/c3ccco3)n2)cc1", "CAT": "inactive"}

Fill in: this test's call for CCN(CC)C(=O)Cc1[nH][nH]c(=O)c1C(=O)N(CC)CC is ___ inactive

Fill in: this test's call for CN(C)/C=N\c1ccn(CCO)c(=O)n1 is ___ inactive

Fill in: this test's call for CCC(Oc1ccc(OC)c2c1C(=O)CCC2)C(=O)O (stereo unspecified) is ___ inactive

Fill in: this test's call for CC(C)NC(=O)OCc1c(COC(=O)NC(C)C)c(-c2ccc[n+](COC(=O)C(C)(C)C)c2)n2c1CCC2 is ___ inactive

Fill in: this test's call for CCOP(=O)(OCC)OC1c2[nH]cc(C(=O)OCc3ccccc3)c2-c2cc(C(=O)OC)[nH]c2C1OC (stereo unspecified) is ___ inactive

Fill in: this test's call for CCOC(=O)C[C@@H](C)[C@]1(C(=O)OC)CCCC1=O is ___ inactive

* * *

- Test system: DMS-273
- PROCEDURE_TEXT: NCI tumour cell line growth inhibition, 48 h
The source made the active and inactive calls. No stated cut-off is given here; in the data, active = GI50 up to about 1.1 µM and inactive = higher.
Tick one outcome: label 1 = active, label 0 = inactive

{"COMPOUND": "CC1=CC2CCC1(C)C/C2=C(/C)OC=O (centres undefined)", "CAT": "label 0"}
{"COMPOUND": "C1CCC(N=C2N(C3CCCCC3)C(=NC3CCCCC3)N2C2CCCCC2)CC1", "CAT": "label 0"}
{"COMPOUND": "N#C/C(=C\\c1ccncc1)c1csc2ccccc12", "CAT": "label 0"}
{"COMPOUND": "COC(=O)CC1NC(=O)C1C(C)(OC)OC (centres undefined)", "CAT": "label 0"}
{"COMPOUND": "O=c1[nH]c(=O)n(C2OC3COC2C3O)cc1F (centres undefined)", "CAT": "label 0"}
{"COMPOUND": "CCOC(=O)C1(C(=O)OCC)CC=C(C)CC12C(=O)Nc1ccccc12 (centres undefined)", "CAT": "label 0"}

Fill in: this test's call for COC1=C2C[C@@H](C)C[C@@H](OC)[C@@H](O)[C@H](C)/C=C(\C)[C@@H](OC(N)=O)[C@H](OC)/C=C\C=C(/C)C(=O)NC(=CC1=O)C2=O is ___ label 1

Fill in: this test's call for O=C(CCl)NNC1=Nc2ccc(Cl)cc2SC1 is ___ label 0

Fill in: this test's call for CC(=O)NC(CCCCN(Cc1ccccc1)C(=O)NCCCl)C(=O)NCc1ccccc1 (centres undefined) is ___ label 0

* * *

- Tested on: EKVX
- PROCEDURE_TEXT: NCI tumour cell line growth inhibition, 48 h
The source made the active and inactive calls. No stated cut-off is given here; in the data, active = GI50 up to about 1.1 µM and inactive = higher.
QUANTITY_KIND: GI50

Example results:
{"COMPOUND": "C[n+]1c(-c2ccc(/C=N/NC(=O)C(=O)N/N=C/c3ccc(-c4cn5ccccc5[n+]4C)cc3)cc2)cn2ccccc21", "RESULT": "> 100 µM (inactive)"}
{"COMPOUND": "CCCC(=O)Nc1cc([N+](=O)[O-])c([N+](=O)[O-])cc1OC", "RESULT": "17.7 µM (inactive)"}
{"COMPOUND": "C[C@@H](CC(O)C(O)C(C)(C)O)C1CCC23CC12CCC1[C@@]2(C)CCC(=O)C(C)(C)C2CC(OC2OC(CO)C(O)C(O)C2O)[C@]13C (stereo not given in full)", "RESULT": "> 10 µM (inactive)"}
{"COMPOUND": "COC(=O)[C@@]12C(=O)C(C)C(=O)[C@]1(C)C(C)=C[C@H]1[C@]3(C=O)CC[C@H](OC(C)=O)C(C)(C)[C@H]3CC[C@@]12C (stereo not given in full)", "RESULT": "> 100 µM (inactive)"}
{"COMPOUND": "COC(=O)[C@@H]1C=CCN1S(=O)(=O)c1ccc(C)cc1", "RESULT": "> 100 µM (inactive)"}

EKVX / GI50 / C/C(=N\NC(N)=S)c1sc(-n2nc(-c3ccccc3)cc2-c2ccccc2)nc1C : value? 50.1 µM (inactive)

EKVX / GI50 / COc1cc(/C=C2\[C@H]3c4c(c(OC)c(C)c(OC)c4OC)CC(C(=O)N2Cc2ccccc2)N3C)c(OC)c(C)c1OC : value? 26.1 µM (inactive)

EKVX / GI50 / COC1=C2C[C@@H](C)C[C@@H](OC)[C@@H](O)[C@H](C)/C=C(\C)[C@@H](OC(N)=O)[C@H](OC)/C=C\C=C(/C)C(=O)NC(=CC1=O)C2=O : value? 6.56 µM (inactive)

EKVX / GI50 / Cc1ccc(S(=O)(=O)OCCn2cnc3nc(NC(=O)c4ccccc4)[nH]c(=O)c32)cc1 : value? > 100 µM (inactive)

EKVX / GI50 / C=Cc1c(C)c2cc3nc(c4c5[nH]c(cc6nc(cc1[nH]2)C(C)=C6CC)c(C)c5C(=O)C4C(=O)OC)C(CCC(=O)OC)C3C (stereo not given) : value? > 100 µM (inactive)

* * *

- Test system: UO-31
- PROCEDURE_TEXT: NCI tumour cell line growth inhibition, 48 h
Activity calls are given as the source filed them. Rule as the data show it: active = GI50 up to about 1.1 µM and inactive = higher.
Tick one outcome: 1 (yes) (active), 0 (no) (inactive)

Some solved cases for reference:
{"COMPOUND": "CC(C)NC(=O)OCc1c(COC(=O)NC(C)C)c(-c2ccc[n+](COC(=O)C(C)(C)C)c2)n2c1CCC2", "CAT": "0 (no)"}
{"COMPOUND": "O=C(CC(C(=O)c1cccs1)c1ccsc1)c1cccs1 (stereo unspecified)", "CAT": "0 (no)"}
{"COMPOUND": "CCCCCCCCCCCCC1NC(=N)NC2(CCCO2)C1C(=O)OC (stereo unspecified)", "CAT": "0 (no)"}

Fill in: this test's call for COc1cc2cnc3c4ccccc4ccc3c2cc1OC is ___ 0 (no)

Fill in: this test's call for O=C(/C=C/c1ccc2c(c1)OCO2)CC(=O)C(=O)c1c[nH]c2ccccc12 is ___ 0 (no)

Fill in: this test's call for C/C=C1/CN2CCc3c([nH]c4ccccc34)[C@@H]2C[C@@H]1Cc1nccc2c1[nH]c1cc(O)ccc12 is ___ 0 (no)

Fill in: this test's call for c1ccc(SC(CCCCOC2CCCCO2)Sc2ccccc2)cc1 (stereo unspecified) is ___ 0 (no)
